Recorded TCF/Wnt firefly luciferase reporter signal, one value per entry.
# Test system: DLD1
# Procedure text: TCF/Wnt firefly luciferase reporter signal relative to plate median (fraction of plate median); higher = higher Wnt reporter signal
# Protocol conditions: 5 µM; treatment time 24 h; reporter: 7TFP
Give a plain numeric answer without units written out.

| Compound | Tgt | Measured number |
| --- | --- | --- |
| C[C@]12CC[C@H]3[C@@H](CCC4=CC(=O)CC[C@@]43C)[C@@H]1CC[C@@H]2O | DLD1 | 0.967 |

Prompt: Consider the compound CCCC(C)C1(CC)C(=O)NC(=S)NC1=O (configuration not stated) and give its recorded TCF/Wnt firefly luciferase reporter signal.
Completion: 1.16

Prompt: Annotate the compound CCC(C)C(=O)c1c(O)c(C)c2oc3c(C)c(O)c(C(=O)C(C)CC)c(O)c3c2c1O (configuration not stated) with its measured TCF/Wnt firefly luciferase reporter signal.
Completion: 0.957

Prompt: Assign TCF/Wnt firefly luciferase reporter signal to the following record: `c1ccc2c(c1)sc1ccccc12`
Completion: 0.867

---

# Test system: SW480
# Procedure text: cell viability (CellTiter-Glo) relative to plate median (fraction of plate median); higher = more viable cells
# Protocol conditions: 5 µM; treatment time 24 h; reporter: 7TFP
Could you mark each record true if its cell viability falls strictly under 1, and false if it equals or exceeds it?

// known answers, use as guide
| Compound | Cat |
| --- | --- |
| C[C@@H]1CC[C@]2(NC1)O[C@H]1C[C@H]3[C@@H]4CC=C5C[C@@H](O)CC[C@]5(C)[C@H]4CC[C@]3(C)[C@H]1[C@@H]2C | true |
| COC1C(O)C(O[C@H]2CC[C@]3(C=O)C4C(CC[C@]3(O)C2)[C@@]2(O)CC[C@H](C3=CC(=O)OC3)[C@@]2(C)C[C@H]4OC(C)=O)OC(C)C1OC(C)=O (stereo not given in full) | true |
| COC(=O)C1=CO[C@@H](C)[C@@H]2CN3CC[C@@]4(C(=O)Nc5ccccc54)[C@H]3C[C@H]12 | false |
| Cc1ccc(-c2nc3ccc(C)cn3c2CC(=O)N(C)C)cc1 | true |
| CC(CCc1ccccc1)NC(C)C(O)c1ccc(O)cc1 (stereo not given) | true |

Moving on to the next compound.
Prompt: Answer whether the compound COc1ccc(C(CN(C)C)C2(O)CCCCC2)cc1 (stereo not given) has cell viability strictly less than 1
Completion: false

---

# Tested on: SW480
# Procedure text: cell viability (CellTiter-Glo) relative to plate median (fraction of plate median); higher = more viable cells
# Protocol conditions: 5 µM; treatment time 24 h; reporter: 7TFP
Assay metric: cell viability
Simply state the number, no unit and no words.

Use these answered entries as a reference point.
| Given smiles | Tgt | Assay metric | Measured number |
| --- | --- | --- | --- |
| C[C@]12CCC(=O)C=C1C=C[C@@H]1[C@@H]2CC[C@@]2(C)[C@H]1CC[C@@]2(O)CCC(=O)O | SW480 | cell viability | 1.04 |
| CC(=O)O[C@@H]1CC[C@@]2(C)[C@@H](CC[C@@H]3[C@@H]2CC[C@]2(C)C(=O)CC[C@@H]32)C1 | SW480 | cell viability | 1.01 |

Now for another entry.
Prompt: Provide only the value of recorded cell viability for `N[C@H](CO)Cc1ccccc1`
Completion: 0.981

Source listed as the supplement of paper PMC6522484.
